Target: EcoRI (Escherichia coli)
Construct: The first M is removed after translation in this protein; purchased New England Biolabs
Sequence (P00642 2-277): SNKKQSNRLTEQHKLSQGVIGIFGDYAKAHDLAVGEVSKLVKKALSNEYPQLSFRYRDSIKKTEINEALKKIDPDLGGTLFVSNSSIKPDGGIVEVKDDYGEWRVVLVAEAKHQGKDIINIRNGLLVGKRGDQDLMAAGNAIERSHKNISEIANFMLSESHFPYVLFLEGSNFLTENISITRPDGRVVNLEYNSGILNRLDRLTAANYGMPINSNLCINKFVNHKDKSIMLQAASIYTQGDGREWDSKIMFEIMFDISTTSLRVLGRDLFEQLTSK
Assay: Peptide inhibitor assay (PIA): EcoRI digestion of pCRII-TOPO-OR23 plasmid, fluorescence intensity of the excised OR23 band on agarose gel
Assay type: biochemical
Conditions: 3 h, EcoRI:peptide 1:500, relative fluorescence intensity; n = 3
Attribute measured: level of inhibitory effect on EcoRI (in words)

VKDDYG [BP9C]; noninhibitory
VVNLEYNSGILN [BP17.5]; not very inhibitory
EWRVVL [BP10N]; noninhibitory
TRPDGRVVNLEY [BP17]; not very inhibitory

Provide the reported level of inhibitory effect on EcoRI (in words) of each entry below, same order.
1. NISEIA [BP14M]
2. EAKHQGKDIIN [BP10.5]
3. FVSNSSIKPDGG [BP8]
4. DLMAAGNAIERS [BP13]

Marked response:
["noninhibitory", "not very inhibitory", "noninhibitory", "not very inhibitory"]

Each substance below has a recorded value; state its level of inhibitory effect on EcoRI (in words).
1. LDRLTAANYGM [BP18.5]
2. GREWDSKIMFEIMF [BP22]
3. KRGDQDLMAAG [BP12.5]
4. SHKNIS [BP14N]

Marked response:
["noninhibitory", "especially notable", "not very inhibitory", "noninhibitory"]

Give one value of level of inhibitory effect on EcoRI (in words) per listed substance.
1. IKKTEINEALKKID [BP6]
2. IDPDLG [BP7N]
3. NAIERSHKNIS [BP13.5]
4. AAGNAI [BP13M]
5. KPDGGIVEVKDDYG [BP9]

Marked response:
1: especially notable; 2: noninhibitory; 3: not very inhibitory; 4: noninhibitory; 5: not very inhibitory

Give level of inhibitory effect on EcoRI (in words) for each listed item.
1. EWRVVLVAEAKHQG [BP10]
2. SSIKPDGGIVE [BP8.5]

Marked response:
1. not very inhibitory
2. not very inhibitory
